Value source: patent US20220096649A1

Would you mind telling me the reported pKd of each entry?
- Target system: SIRP-α mouse BALBc (mouse (BALBc)) (UniProt P97797)
- Assay details: SPR, antibody on GLC chip, SIRP as analyte
Answers are plain numbers, as −log10 of the molar value.

Anti-SIRP-α antibody 136, light chain Mut_S12T, heavy chain Mut (antibody, V domains shown) VH: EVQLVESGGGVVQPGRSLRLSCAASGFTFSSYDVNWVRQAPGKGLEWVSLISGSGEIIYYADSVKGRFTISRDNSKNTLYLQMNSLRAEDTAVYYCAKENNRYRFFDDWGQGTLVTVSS VL: EIVLTQSPGTLTLSPGERATLSCRASQSVYTYLAWYQQKPGQAPRLLIYGASSRATGIPDRFSGSGSGTEFTLTISSLQSEDFAVYYCQQYYDRPPLTFGGGTKVEIK = 8.68
Anti-SIRP-α antibody 136, light chain wt, heavy chain Mut (antibody, V domains shown) VH: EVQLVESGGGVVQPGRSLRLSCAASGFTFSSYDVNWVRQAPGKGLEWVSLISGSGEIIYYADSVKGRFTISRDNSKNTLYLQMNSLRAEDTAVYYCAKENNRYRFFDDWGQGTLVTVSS VL: ETVLTQSPGTLTLSPGERATLTCRASQSVYTYLAWYQEKPGQAPRLLIYGASSRATGIPDRFSGSGSGTEFTLTISSLQSEDFAVYYCQQYYDRPPLTFGGGTKVEIK = 9.38

# context switch: different binder, same pKd
State its pKd for this binder: Anti-SIRP-α antibody 136, light chain Mut_I2T, heavy chain Mut_V34M (antibody, V domains shown) VH: EVQLVESGGGVVQPGRSLRLSCAASGFTFSSYDMNWVRQAPGKGLEWVSLISGSGEIIYYADSVKGRFTISRDNSKNTLYLQMNSLRAEDTAVYYCAKENNRYRFFDDWGQGTLVTVSS VL: ETVLTQSPGTLSLSPGERATLSCRASQSVYTYLAWYQQKPGQAPRLLIYGASSRATGIPDRFSGSGSGTEFTLTISSLQSEDFAVYYCQQYYDRPPLTFGGGTKVEIK 9.44
